Data origin, for the record: patent US20260132208A1

Measured residual hCCL1 (100 nM) Gi2 response, protocol #3, mAb 0.05 µg/mL, listed per entry for reference.
# EXPERIMENTAL_TARGET: human CCR8 (human, UniProt P51685 1-355)
# EXPERIMENT: cell-based or functional assay
Numeric only. Scale: %

Below, each entry is followed by its recorded residual hCCL1 (100 nM) Gi2 response, protocol #3, mAb 0.05 µg/mL result.
anti-CCR8 mAb 1-13 (antibody, V domains shown, Murine hybridoma mAb) VH: EVQLVETGGGLVQPKGSLKLSCAASGFTFNTNAMNWVRQAPGKGLEWVARIRSKSNYYATYYADSVKDRFTISRDDSQSMLYLQMNNLKTEDTAMYYCVRGREMGNYYSMDYWGQGTSVTVSS VL: DIVMTQAAPSVPVTPGESVSISCRSSKSLLHSNGNTYLYWFLQRPGQSPQLLIYRMSNLASGVPDRFSGSGSGTAFTLRISRVEAEDVGVYYCMQHLEYPFTFGSGTKLEIK | 69
anti-CCR8 mAb 1-1 (antibody, V domains shown, Murine hybridoma mAb) VH: EVQLLESGGGLVQPKGSLKLSCAASGFTFNPYAMNWVRQAPGRGLEWVARIRSKSNNYATYYADSVKDRFTISRDDSQDMLYLQMNNLKTEDTAMYYCVRGREAYYRYDGDYYAMDYWGQGTSVTVSS VL: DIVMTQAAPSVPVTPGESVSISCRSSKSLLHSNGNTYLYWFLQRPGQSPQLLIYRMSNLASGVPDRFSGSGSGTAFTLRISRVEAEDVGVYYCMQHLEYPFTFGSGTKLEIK | 77

Could you now consider this next binder?
For record anti-CCR8 mAb 1-7 (antibody, V domains shown, Murine hybridoma mAb) VH: QVHLVETGGGLVRPGNSLKLSCVTSGFTLSNYRMHWLRQPPGKRLEWIAVIKVKSDNYGANYAESVKGRFTISRDDAKSSVYLQMNRLREEDTATYYCSRPDGFSPFVYWGQGTLVTVSA VL: DIKMTQSPSSMYASLGERVTITCKASQDINSYLSWFQQKPGKSPKTLIYRANRLVDGVPSRFSGSGSGQDYFLTISSLEYEDMGIYYCLQYGEFPPTFGAGTKLELK the listed residual hCCL1 (100 nM) Gi2 response, protocol #3, mAb 0.05 µg/mL is 69
